- System: L1210
- assay.comment: In vitro cytotoxicity against L1210 murine leukemia cells after 48 hr of continuous exposure
- Assay type: functional, cell-based
- recorded.conditions: Mus musculus, L1210, 48 h
Below, each of the compounds is paired with its reported log10 of IC50 value.
measured.quantity: log10 of IC50 (log10 of the value in nM)

compound.smiles: C=C(Br)C(=O)Nc1ccccc1
log10 of IC50: 1.57
//
compound.smiles: C=C(Br)C(=O)Nc1cc(C(=O)Nc2cc(C(=O)Nc3cc(C(=O)Nc4cc(C(=O)NCCN=C(N)N)n(C)c4)n(C)c3)n(C)c2)n(C)c1
log10 of IC50: 0.26
//
compound.smiles: C=C(Br)C(=O)Nc1cc(C(=O)NCCC#N)n(C)c1
log10 of IC50: 1.72
//
compound.smiles: C=C(Br)C(=O)Nc1cc(C(=O)Nc2ccccc2)n(C)c1
log10 of IC50: 1.63
//
compound.smiles: C=C(Br)C(=O)Nc1cc(C(=O)Nc2cc(C(=O)NCCC(=N)N)n(C)c2)n(C)c1
log10 of IC50: 3.11
//
compound.smiles: C=C(Br)C(=O)Nc1ccc(F)cc1
log10 of IC50: 1.77
//
compound.smiles: C=C(Br)C(=O)Nc1cc(C(=O)Nc2cc(C(=O)Nc3cc(C(=O)NCCN=C(N)N)n(C)c3)n(C)c2)n(C)c1
log10 of IC50: 1.43
//
compound.smiles: C=CC(=O)Nc1cc(C(=O)Nc2cc(C(=O)Nc3cc(C(=O)Nc4cc(C(=O)NCCC(=N)N)n(C)c4)n(C)c3)n(C)c2)n(C)c1
log10 of IC50: 3.30
//
compound.smiles: C=C(Br)C(=O)Nc1ccc(N(C)C)cc1.Cl
log10 of IC50: 1.73
